Values were extracted from PubChem BioAssay (NCI).

Catalogue of growth inhibition readings, one per entry.
- Test Method Notes: NCI Yeast Anticancer Drug Screen. Data for the sgs1 mgt1 strain (AID 161);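 further: 0% = growth of cultures given vehicle only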
- Condition Details: S. cerevisiae sgs1 mgt1 strain, at 50.0 µM, stronger effect = higher value
The panel holds about 79,000 compounds, 15% with a hit somewhere; the sample as a whole holds those more often. The source made the active and inactive calls. No stated cut-off is given here; in the data, active means growth inhibition above about 70%; inactive means the rest.
Recorded Metric: growth inhibition

Compound | Recorded Metric | Endpoint Result
CC1(C)OC2C(COC(c3ccccc3)(c3ccccc3)c3ccccc3)OC(n3cnc4c(N)ncnc43)C2O1 (stereo not given) | growth inhibition | 18.6% (inactive)
CN(C)N=Nc1ccc2[nH]c(=O)[nH]c2c1 | growth inhibition | 12.6% (inactive)
COc1ccc2oc(-c3ccc(OC)c(OC)c3OC)cc(=O)c2c1 | growth inhibition | 70% (active)
O=C1NC(=O)C(c2ccccc2)(c2ccccc2)C2CC3c4[nH]c5ccccc5c4CCN3CC12 (stereo not given) | growth inhibition | 56% (inactive)
S=C(N/N=C/c1ccccn1)N1CCCCC1 | growth inhibition | 91.8% (active)
